Tested on: MS2 coat protein
Assay: apparent KD of MS2 coat protein; higher = weaker reporter binding
Cond: Eterna round: R107; input ligand: arginine 13.2 mM
Quantity measured: apparent KD of MS2 coat protein (nM)
// note: answer is a bare numeric in nM

Record lookup: for MS2 coat protein, what apparent KD of MS2 coat protein belongs to AAACGUUGCUGCGAUACCAGACAUGAGGAUCACCCAUGUACCAAGGUAAGAAAAUAACAUGUCCCUUGGCAGCGCAGCAACGAAA [MAT - Exclusion Theophlline B - Mod of Eli - D3] ? 17.5

Form entry - test system: MS2 coat protein; read-out: apparent KD of MS2 coat protein; sequence: UCGAAUGCGGCGGCCGCCACUCGCGGAUAACGAUAGCUUAACAUGAGGAUCACCCAUGUGUCAUGGAGGACCGGGCCCAUACCGU [azamullin] 19.7

Hi! What's the reported apparent KD of MS2 coat protein for AAAAUCCUAUCUGAGGAUCACCCAGGUGAAGGAGCGCCCGAAAGGGCAGGUAGGUCGCACCUGAGGAUCACCCUGGUAAACCUAA [ArgEX 21 #DoubleMS2 #OpenEnded] on MS2 coat protein? 68.8

Recorded apparent KD of MS2 coat protein for UUGUGGUAGGCGCAUACUCAUUUAUACAAGCGAGGACCGGUACGGCCGCCACUCGGAAUAAAACAUGAGGAUCACCCAUGUACCG [theeternabot_exclusion_MS2_Trp_A_50] with MS2 coat protein, please? 12.9

# returns recorded apparent KD of MS2 coat protein (system: MS2 coat protein) for AGGGAACAUGAGGAUCACCCAUGUGCCGAUACCAGUGAUUUUCAGCACCCUUGGCAGCGGAACCUUUGUUAUAUUAUUCUUAGGG [theeternabot_sameState_MS2_Theo_A_25] 32.5

Attribution: the supplement of paper PMC9170038
